Ref: patent US12528812B2

target: recombinant human JAK1 kinase domain protein (Residues 854-1154) (Homo sapiens); construct: human JAK1 kinase domain protein (Residues 854-1154); assay: JAK1 biochemical assay (LabChip mobility shift, Ki); details: read-out: Biochem JAK1 Ki
Sequence (P23458 854-1154): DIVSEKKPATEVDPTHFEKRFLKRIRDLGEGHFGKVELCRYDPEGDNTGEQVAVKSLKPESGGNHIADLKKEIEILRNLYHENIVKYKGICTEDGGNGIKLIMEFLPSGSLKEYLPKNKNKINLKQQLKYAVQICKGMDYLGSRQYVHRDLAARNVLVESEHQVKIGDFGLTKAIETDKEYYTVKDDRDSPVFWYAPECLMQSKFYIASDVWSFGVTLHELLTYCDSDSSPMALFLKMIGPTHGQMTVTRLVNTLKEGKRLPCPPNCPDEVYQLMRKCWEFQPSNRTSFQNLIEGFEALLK
Exercise: for every item that follows, state its recorded Ki.
Answers are plain numbers, in nM.

Solved cases (5 shown):
> print(dat)
                                   molecule                              study.system  endpoint.value
1  N#CCc1ccc(Oc2ccc(OC(F)F)c(-c3n[nH]cc3NC(=O)c3cnn4cccnc34)c2)cc1  recombinant human JAK1 kinase domain protein (Residues 854-1154) (Homo sapiens)            0.18
2  Cn1cc(NC(=O)c2cnn3cccnc23)c(-c2cc(Oc3cnn(C4CCC4O)c3)ccc2OC(F)F)n1 (stereo not drawn) [Example 135]  recombinant human JAK1 kinase domain protein (Residues 854-1154) (Homo sapiens)            0.25
3  Cn1cc(NC(=O)c2cnn3cccnc23)c(-c2cc(Oc3ccc(C(N)=O)cc3)ccc2OC(F)F)n1  recombinant human JAK1 kinase domain protein (Residues 854-1154) (Homo sapiens)             0.5
4  Cc1ccc(Oc2ccc(OC(F)F)c(-c3nn(C[C@@H]4C[C@@H](F)CN4C)cc3NC(=O)c3cnn4cccnc34)c2)cc1C(=O)N(C)C (racemic)  recombinant human JAK1 kinase domain protein (Residues 854-1154) (Homo sapiens)             1.2
5  Cn1cc(NC(=O)c2cnn3cccnc23)c(-c2cc(Oc3ccnnc3)ccc2OC(F)F)n1  recombinant human JAK1 kinase domain protein (Residues 854-1154) (Homo sapiens)            0.68

Take each entry in turn and give its Ki.
1. Cn1cc(NC(=O)c2cnn3cccnc23)c(-c2cc(Oc3cn[nH]c3)ccc2OC(F)F)n1
2. Cn1cc(NC(=O)c2cnn3cccnc23)c(-c2cc(Oc3cccnc3)ccc2OC(F)F)n1
3. CN1CCCC(O)(Cn2cc(Oc3ccc(OC(F)F)c(-c4nn(C)cc4NC(=O)c4cnn5cccnc45)c3)cn2)CC1 (stereo not drawn) [Example 197]

Result string:
1. 0.1
2. 0.32
3. 0.81

Take each entry in turn and give its Ki.
1. N#CCc1cccc(Oc2ccc(OC(F)F)c(-c3n[nH]cc3NC(=O)c3cnn4cccnc34)c2)c1
2. CN1CC(O)(c2cccc(Oc3ccc(OC(F)F)c(-c4nn(C5COC5)cc4NC(=O)c4cnn5cccnc45)c3)c2)C1
3. Cc1ccc(Oc2ccc(OC(F)F)c(-c3n[nH]cc3NC(=O)c3cnn4cccnc34)c2)cc1
4. Cc1cc(Oc2ccc(OC(F)F)c(-c3nn(C)cc3NC(=O)c3cnn4cccnc34)c2)cc(C2(O)CNC2)c1
5. Cn1cc(NC(=O)c2cnn3cccnc23)c(-c2cc(Oc3ccc(CN)cc3)ccc2OC(F)F)n1
6. Cn1cc(NC(=O)c2cnn3cccnc23)c(-c2cc(Oc3cccc(C4(O)CNC4)c3)ccc2OC(F)F)n1

Result string:
1. 0.21
2. 0.4
3. 0.39
4. 0.2
5. 1.5
6. 0.32

get_value(item= CN1CC(O)(c2cccc(Oc3ccc(OC(F)F)c(-c4nn(C)cc4NC(=O)c4cnn5cccnc45)c3)c2)C1 , readout=Ki) returns 0.24
